assay: Cell cytotoxicity CC50; assay type: cell-based; conditions: human; A549 cells, 6-8 days, top concentration 100 μM; read-out: CC50 (concentration at which 50% cell toxicity is observed)
outcome measure: CC50

INSERT INTO assay_data (molecule, val) VALUES
  ('O=C1Nc2ccccc2C(c2ccccc2)=NC1Nc1c(F)c(F)nc(F)c1F (racemic)', '≥ 100 µM');

---

assay: Cell cytotoxicity CC50; format: cell-based; details: human; HeLa cells, 6-8 days, top concentration 100 μM; read-out: CC50 (concentration at which 50% cell toxicity is observed)
outcome measure: CC50

INSERT INTO results (compound, val) VALUES
  ('O=C1Nc2ccccc2C(c2ccccc2)=NC1Nc1c(F)c(F)nc(F)c1F (racemic) [Compound 5]', '≥ 100 µM');

Entry source: patent US10406166B2
